Item-by-item account of Max MFI
# system under test: T1, human CCR8 (human, UniProt P51685 1-355)
# T1 construct: whole, on cells; also called hCCR8
# T1 sequence (P51685 whole entry): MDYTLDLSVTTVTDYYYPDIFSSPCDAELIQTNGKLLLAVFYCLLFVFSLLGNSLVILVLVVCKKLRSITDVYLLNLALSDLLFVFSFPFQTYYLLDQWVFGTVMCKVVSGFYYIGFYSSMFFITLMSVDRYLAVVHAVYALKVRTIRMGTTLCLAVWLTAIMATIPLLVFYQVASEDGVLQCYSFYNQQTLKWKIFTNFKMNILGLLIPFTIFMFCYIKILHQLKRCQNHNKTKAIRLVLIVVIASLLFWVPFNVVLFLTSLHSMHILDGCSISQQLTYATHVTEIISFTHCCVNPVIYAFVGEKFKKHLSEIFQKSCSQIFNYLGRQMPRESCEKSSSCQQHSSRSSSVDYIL
# measurement protocol: FACS on HEK293-human CCR8 cells
Give just the number in MFI; leave the unit off.

Field: example entries. Status: answers known.
INSERT INTO assay_data (binder, observation_type, measured) VALUES
  ('149F2C10_G29I (antibody, V domains shown, NG site removed variant of 149F2C10) VH: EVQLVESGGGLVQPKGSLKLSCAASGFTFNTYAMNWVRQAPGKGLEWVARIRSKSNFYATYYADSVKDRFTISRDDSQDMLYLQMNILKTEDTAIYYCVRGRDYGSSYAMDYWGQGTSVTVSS VL: DIVMTQAAPSVPVTPGESVSISCRSSKSLLHSNINTYLYWFLQRPGQSPQLLIYRMSNLASGVPDRFSGSGSGTAFTLRISRVEAEDVGVYYCMQHLEYPLTFGAGTKLELK', 'Max MFI', 2060),
  ('149F2C10_N28I (antibody, V domains shown, NG site removed variant of 149F2C10) VH: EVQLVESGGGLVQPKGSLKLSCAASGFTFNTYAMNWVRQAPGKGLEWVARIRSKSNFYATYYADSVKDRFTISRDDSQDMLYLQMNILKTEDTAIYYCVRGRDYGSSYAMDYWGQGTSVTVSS VL: DIVMTQAAPSVPVTPGESVSISCRSSKSLLHSIGNTYLYWFLQRPGQSPQLLIYRMSNLASGVPDRFSGSGSGTAFTLRISRVEAEDVGVYYCMQHLEYPLTFGAGTKLELK', 'Max MFI', 1650);

Lab note: next binder to report on.
Challenge: Answer with reported Max MFI of 149F2C10_G29A (antibody, V domains shown, NG site removed variant of 149F2C10) VH: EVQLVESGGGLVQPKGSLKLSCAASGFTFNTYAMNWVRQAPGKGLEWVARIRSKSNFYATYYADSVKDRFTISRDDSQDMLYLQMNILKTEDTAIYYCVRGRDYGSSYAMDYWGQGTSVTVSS VL: DIVMTQAAPSVPVTPGESVSISCRSSKSLLHSNANTYLYWFLQRPGQSPQLLIYRMSNLASGVPDRFSGSGSGTAFTLRISRVEAEDVGVYYCMQHLEYPLTFGAGTKLELK
Response given: 2040
